B1: 6YSE (parent)
chain: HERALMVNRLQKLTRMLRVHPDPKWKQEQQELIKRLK

Variants of: B1
Test: folding stability dG (cDNA display proteolysis); higher = more stable
Details: PBS, room temperature
Consider the following variants and their measured folding stability dG readings.

Study these solved cases before continuing.
variant string | folding stability dG
R3N | 0.899 kcal/mol
P21R | 0.878 kcal/mol

Now examine the next entry.
Given item "T14H" , the value recorded as its folding stability dG is 0.917 kcal/mol
